# measured.target: Ba/F3 cells expressing p210Bcr-Abl-T315I (Homo sapiens, UniProt P00519, T315I, cells depend on it)
# Construct: fused on or other part: P11274 (Breakpoint cluster region protein)
# test.details: phenoresponse-based cellular assay (cell count and viability), Ba/F3 T315I test cells;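 note: cells counted by automated microcell imaging, viability scored by trypan blue exclusion, phenoresponse judged against parental Ba/F3 and Ba/F3 carrying wild-type p210Bcr-Abl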
# Parameters: species or system murine
# protocol.conditions: concentration inhibiting growth of the cell line by 50% in the cellular assay, read-out: T315I (IC50 activity category)
Reported GI50 by item:

Use the examples below as a reference point.
• O=C(Nc1cccc(C(F)(F)F)c1)c1ccc(/C=N/Nc2ncc(F)c(N3CCOCC3)n2)nc1 = < 1 µM
• O=C(NNc1ncc(F)c(N2CCOCC2)n1)c1ccc(Nc2cccc(C(F)(F)F)c2)cn1 = < 1 µM
• Fc1cnc(N/N=C/c2ccc(-c3cccc(C(F)(F)F)c3)cn2)nc1N1CCOCC1 = < 1 µM
• Fc1cnc(N/N=C/c2ccc(Nc3ccc(-c4cccnc4)cc3)cn2)nc1N1CCOCC1 = < 0.3 µM
• Cc1ccccc1/C=N/Nc1ncc(F)c(N2CCOCC2)n1 = > 10 µM

Then this molecule:
I would be grateful if you could share the reported GI50 for Oc1ccccc1/C=N/Nc1ncc(F)c(N2CCOCC2)n1 .
< 10 µM
